Measured pKi, listed per entry for reference.
Target: UniProtKB Q8IL11
Sequence (Q8IL11 whole entry): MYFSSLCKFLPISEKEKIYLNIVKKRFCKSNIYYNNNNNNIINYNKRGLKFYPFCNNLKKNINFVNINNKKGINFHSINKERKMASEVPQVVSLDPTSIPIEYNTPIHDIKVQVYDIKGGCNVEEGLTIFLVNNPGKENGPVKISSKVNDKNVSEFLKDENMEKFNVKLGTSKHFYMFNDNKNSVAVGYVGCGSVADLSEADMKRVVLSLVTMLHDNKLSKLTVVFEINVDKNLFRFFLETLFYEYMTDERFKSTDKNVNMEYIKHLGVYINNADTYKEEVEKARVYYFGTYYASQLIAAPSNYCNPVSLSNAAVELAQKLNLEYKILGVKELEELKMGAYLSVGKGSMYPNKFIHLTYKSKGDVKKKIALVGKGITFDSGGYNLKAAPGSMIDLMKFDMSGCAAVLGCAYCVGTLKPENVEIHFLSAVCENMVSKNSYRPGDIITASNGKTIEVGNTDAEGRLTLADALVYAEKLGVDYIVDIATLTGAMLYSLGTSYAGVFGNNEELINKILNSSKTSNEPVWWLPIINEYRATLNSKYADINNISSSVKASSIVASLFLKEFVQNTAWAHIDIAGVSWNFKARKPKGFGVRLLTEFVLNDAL
pKi: −log10 of the molar value.
quantity.measured: pKi

compound: O=C(NC(C(=O)NO)c1ccc(-n2cccn2)cc1)c1ccccc1 (configuration not stated)
qualifier.sign: =
recorded.number: 6.81
--
compound: Cl.NC(C(=O)O)c1ccc(-n2cccn2)cc1 (configuration not stated)
qualifier.sign: <
recorded.number: 3.30
--
compound: CCC(=O)NC(C(=O)NO)c1ccc(-n2cccn2)cc1 (configuration not stated)
qualifier.sign: =
recorded.number: 7.80
--
compound: CC(=O)NC(C(=O)NO)c1ccc(-n2cccn2)cc1 (configuration not stated)
qualifier.sign: =
recorded.number: 7.72
--
compound: Nc1cccc(C(=O)NC(C(=O)NO)c2ccc(-n3cccn3)cc2)c1 (configuration not stated)
qualifier.sign: =
recorded.number: 7.85
--
compound: O=C(NC(C(=O)NO)c1ccc(-n2cccn2)cc1)c1ccc(F)cc1 (configuration not stated)
qualifier.sign: =
recorded.number: 7.92
--
compound: CC(C)C(=O)NC(C(=O)NO)c1ccc(-n2cccn2)cc1 (configuration not stated)
qualifier.sign: =
recorded.number: 7.28
